// data source = patent US20050025768A1

biological target: human Gcp-2 (human, UniProt P80162 38-114, limits assumed); test: ELISA, hybridoma supernatant
experimental-readout: binding result

binder	observed
7H1 (antibody, IgG1, V domains shown, IgG1; ATCC PTA-3985; also called 7H1.1) VH: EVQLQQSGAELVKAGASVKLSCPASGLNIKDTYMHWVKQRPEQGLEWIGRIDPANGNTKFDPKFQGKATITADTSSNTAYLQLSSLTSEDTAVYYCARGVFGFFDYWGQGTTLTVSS VL: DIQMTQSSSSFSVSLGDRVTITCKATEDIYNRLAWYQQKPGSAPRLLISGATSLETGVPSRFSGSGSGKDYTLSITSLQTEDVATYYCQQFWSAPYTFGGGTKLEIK	no binding
11K2 (antibody, IgG1, V domains shown, ATCC PTA-3987; also called 11K2.1; 11K2 mAb) VH: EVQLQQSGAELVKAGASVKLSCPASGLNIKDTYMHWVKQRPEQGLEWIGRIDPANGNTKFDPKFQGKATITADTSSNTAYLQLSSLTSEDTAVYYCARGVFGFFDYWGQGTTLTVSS VL: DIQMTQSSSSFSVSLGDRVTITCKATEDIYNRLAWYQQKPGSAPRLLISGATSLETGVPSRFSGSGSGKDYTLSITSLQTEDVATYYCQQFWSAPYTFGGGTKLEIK	no binding
5A13 (antibody, IgG1, V domains shown, IgG1; ATCC PTA-3995; also called 5A13.1) VH: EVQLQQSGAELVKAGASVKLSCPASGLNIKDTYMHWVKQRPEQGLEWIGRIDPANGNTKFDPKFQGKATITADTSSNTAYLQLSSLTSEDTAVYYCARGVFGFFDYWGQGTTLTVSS VL: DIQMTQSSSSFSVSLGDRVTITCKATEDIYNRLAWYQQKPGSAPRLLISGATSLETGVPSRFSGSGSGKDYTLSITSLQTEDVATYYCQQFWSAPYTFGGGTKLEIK	no binding
